# assay.target: T1, human plasma kallikrein (human, UniProt P03952 20-390; P03952 391-638)
# T1 construct: also called pKal; human pKal
# T1 sequence (P03952 20-390, chain 1 of 2): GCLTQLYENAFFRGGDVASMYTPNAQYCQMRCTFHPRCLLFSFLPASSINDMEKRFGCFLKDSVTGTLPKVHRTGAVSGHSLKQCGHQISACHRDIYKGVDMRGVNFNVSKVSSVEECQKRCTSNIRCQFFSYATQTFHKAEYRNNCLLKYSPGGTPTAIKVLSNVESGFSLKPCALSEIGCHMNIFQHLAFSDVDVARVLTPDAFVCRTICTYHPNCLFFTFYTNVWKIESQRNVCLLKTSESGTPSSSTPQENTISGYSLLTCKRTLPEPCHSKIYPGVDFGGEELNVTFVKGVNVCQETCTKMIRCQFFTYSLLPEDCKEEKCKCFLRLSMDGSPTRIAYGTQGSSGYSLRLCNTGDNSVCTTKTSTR
# T1 sequence (P03952 391-638, chain 2 of 2): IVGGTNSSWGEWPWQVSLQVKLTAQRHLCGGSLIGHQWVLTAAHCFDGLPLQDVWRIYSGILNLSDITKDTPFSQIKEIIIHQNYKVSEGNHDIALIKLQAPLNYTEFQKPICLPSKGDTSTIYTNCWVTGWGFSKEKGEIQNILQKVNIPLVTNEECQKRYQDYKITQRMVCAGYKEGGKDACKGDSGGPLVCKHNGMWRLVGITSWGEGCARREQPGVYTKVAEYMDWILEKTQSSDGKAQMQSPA
# experiment: apparent inhibition constant (Ki,app) against human pKal, enzyme inhibition
endpoint.name: log10 of Ki (log10 of the value in nM)
Values below are the log10 of the recorded Ki, with nM as the unit.

Sample answers from the record:
X67-F01 (antibody, V domains shown, Single point mutant (F to Q at P2 of HC CDR3) of M142-H08; Only variable domains and the start of CH1 are printed; also called 559A-X67-F01) VH: EVQLLESGGGLVQPGGSLRLSCAASGFTFSAYSMIWVRQAPGKGLEWVSYIRPSGGRTTYADSVKGRFTISRDNSKNTLYLQMNSLRAEDTAVYYCARGGLLLWQRELKSNYFDYWGQGTLVTVSS VL: DIQMTQSPSSLSAFVGDRVTITCRASQPIDNYLNWYHQKPGKAPKLLIYAASRLQSGVPSRLSGSGFGTDFTLTISSLQPEDFGNYYCQQSYTVPYTFGGGTKVEIR ... -0.05
M8-A09 (Fab, V domains shown, Printed HC runs from VH into the start of CH1) VH: EVQLLESGGGLVQPGGSLRLSCAASGFTFSTYFMLWVRQAPGKGLEWVSSIYPSGGNTVYADSVKGRFTISRDNSKNTLYLQMNSLRAEDTAVYYCARAASPVRNYYYYGMDVWGQGTTVTVSS VL: QCELTQPPSESVSPGQTANITCSGDKLGNKYAYWYQQKPGQSPVLVIYQDNNRPSGIPERFSGSNSGNTATLTISGTQAIDEANYYCQAWDSRTVVFGGGTKLTVL ... 2.02
M41-A11 (Fab, V domains shown, Printed HC runs from VH into the start of CH1) VH: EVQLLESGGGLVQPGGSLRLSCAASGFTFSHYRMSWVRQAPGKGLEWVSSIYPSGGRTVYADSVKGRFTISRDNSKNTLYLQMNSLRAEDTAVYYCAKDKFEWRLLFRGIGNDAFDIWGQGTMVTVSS VL: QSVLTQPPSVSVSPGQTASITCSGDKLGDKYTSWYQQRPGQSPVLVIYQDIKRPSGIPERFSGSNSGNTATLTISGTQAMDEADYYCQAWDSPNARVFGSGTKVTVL ... 1.11
X67-H04 (antibody, V domains shown, Single point mutant (F to E at P2 of HC CDR3) of M142-H08; Only variable domains and the start of CH1 are printed; also called 559A-X67-H04) VH: EVQLLESGGGLVQPGGSLRLSCAASGFTFSAYSMIWVRQAPGKGLEWVSYIRPSGGRTTYADSVKGRFTISRDNSKNTLYLQMNSLRAEDTAVYYCARGGLLLWERELKSNYFDYWGQGTLVTVSS VL: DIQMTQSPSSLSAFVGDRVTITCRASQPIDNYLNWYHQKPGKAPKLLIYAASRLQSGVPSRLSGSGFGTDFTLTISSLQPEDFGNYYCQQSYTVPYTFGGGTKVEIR ... 0.56
M145-D01 (Fab, V domains shown, Printed HC runs from VH into the start of CH1) VH: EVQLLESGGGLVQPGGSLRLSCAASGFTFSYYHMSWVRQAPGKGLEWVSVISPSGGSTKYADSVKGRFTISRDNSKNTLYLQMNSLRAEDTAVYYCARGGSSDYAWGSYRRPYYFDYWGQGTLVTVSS VL: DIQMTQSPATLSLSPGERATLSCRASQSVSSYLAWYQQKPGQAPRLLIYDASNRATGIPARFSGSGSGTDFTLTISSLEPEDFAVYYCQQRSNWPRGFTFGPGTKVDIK ... 0.04
M142-H08 (Fab, V domains shown, Printed HC runs from VH into the start of CH1) VH: EVQLLESGGGLVQPGGSLRLSCAASGFTFSAYSMIWVRQAPGKGLEWVSYIRPSGGRTTYADSVKGRFTISRDNSKNTLYLQMNSLRAEDTAVYYCARGGLLLWFRELKSNYFDYWGQGTLVTVSS VL: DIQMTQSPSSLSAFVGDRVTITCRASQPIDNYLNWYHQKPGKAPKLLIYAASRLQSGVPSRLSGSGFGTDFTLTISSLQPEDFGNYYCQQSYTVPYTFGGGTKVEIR ... -0.70

Sample M38-F02 (Fab, V domains shown, Printed HC runs from VH into the start of CH1) VH: EVQLLESGGGLVQPGGSLRLSCAASGFTFSYYMMVWVRQAPGKGLEWVSYIYSSGGHTVYADSVKGRFTISRDNSKNTLYLQMNSLRAEDTAVYYCARDLFLYDFWSKGAFDIWGQGTMVTVSS VL: QSVLTQPPSVSVSPGQTASITCSGEKLGDKYVSWYQQKPGQSPSLVICEDSRRPSGIPERFSGSNSGNTATLTISGAQPMDEADYYCQAWDSSTAIFGPGTKVTVL ; log10 of Ki observed: 1.15

Sample X67-B03 (antibody, V domains shown, Single point mutant (F to S at P2 of HC CDR3) of M142-H08; Only variable domains and the start of CH1 are printed; also called 559A-X67-B03) VH: EVQLLESGGGLVQPGGSLRLSCAASGFTFSAYSMIWVRQAPGKGLEWVSYIRPSGGRTTYADSVKGRFTISRDNSKNTLYLQMNSLRAEDTAVYYCARGGLLLWSRELKSNYFDYWGQGTLVTVSS VL: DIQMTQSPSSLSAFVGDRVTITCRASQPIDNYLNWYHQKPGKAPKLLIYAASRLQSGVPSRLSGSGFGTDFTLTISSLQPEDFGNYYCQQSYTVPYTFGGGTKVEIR ; log10 of Ki observed: 0.32
